The compounds listed here are annotated with their EC50.
tested on: Fusarium gramineum; assay: Fungitoxic activity of combined isothiocyanates, 48 well plates, synergy (CompuSyn); conditions: read-out: EC50 Molecule 1

compound	units-text	qualifying-sign	EC50
C[S+]([O-])CCCCC/C=C/CN=C=S (stereo not drawn)	µM	>	850
C[S+]([O-])CCCCCCCCN=C=S (stereo not drawn)	µM	=	317
CC[S+]([O-])CCCCCCCCN=C=S (stereo not drawn) [Molecule 8ESOH, 1-(ethylsulfinyl)-8-isothiocyanatooctane]	µM	=	533

----------
// reported EC50 for each item listed
system: Alternaria radicina; assay: Fungitoxic activity of combined isothiocyanates, 48 well plates, synergy (CompuSyn); conditions: read-out: EC50 Molecule 1, Alternaria radicina, first molecule alone, range 10-850 μM, 850 = no fungitoxic activity in the tested range

molecule	EC50
C[S+]([O-])CCCCc1cccc(CN=C=S)c1 (centres unmarked) [Molecule 8ASOH]	723 µM
C[S+]([O-])CCCCC/C=C/CN=C=S (centres unmarked) [Molecule 8CSOH]	472 µM

----------
tested on: Fusarium gramineum; test: Fungitoxic activity of combined isothiocyanates, 48 well plates, synergy (CompuSyn); settings: 168 h, read-out: EC50 Molecule 1
pEC50: −log10 of the molar value.
# pEC50 values compiled below
reported-property: pEC50

compound	qualifying-sign	reported-result
C[S+]([O-])CCCCCCCCN=C=S (stereo not shown)	=	3.50
CS(=O)(=O)CCCCCCCCN=C=S	<	3.07
C[S+]([O-])CCCCC/C=C/CN=C=S (stereo not shown)	<	3.07
CC[S+]([O-])CCCCCCCCN=C=S (stereo not shown) [Molecule 8ESOH, 1-(ethylsulfinyl)-8-isothiocyanatooctane]	=	3.27

----------
system: Fusarium gramineum; assay: microbe, parasite or virus in culture; format: cell-based; conditions: Fusarium, read-out: ED50 F. gramineum
pEC50: −log10 of the molar value.
reported-property: pEC50

molecule	reported-result
C[S+]([O-])CCCCN=C=S (stereo not shown) [Molecule 4MSOH]	3.20
